Tested system: hSTING-WT (Homo sapiens (Human), UniProt Q86WV6, H232R)
Sequence (Q86WV6 140-379 H232R): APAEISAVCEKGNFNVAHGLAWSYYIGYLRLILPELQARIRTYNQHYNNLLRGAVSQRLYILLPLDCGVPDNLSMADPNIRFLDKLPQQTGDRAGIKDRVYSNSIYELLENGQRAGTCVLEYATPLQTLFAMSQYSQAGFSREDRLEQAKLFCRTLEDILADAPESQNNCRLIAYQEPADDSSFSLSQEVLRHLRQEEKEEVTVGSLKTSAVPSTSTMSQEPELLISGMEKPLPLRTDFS
Experiment notes: Radiometric filtration binding competition assay, hSTING-WT
Recorded endpoint: IC50

CC(C)Nc1ccc2c(=O)c3ccc(Cl)c(-c4ccccc4)c3n(CC(=O)O)c2c1 : < 20 µM

Your task in this section: give IC50 for each listed record.
1. C[C@@H]1CCCN1c1ccc2c(=O)c3ccc(Cl)c(Br)c3n(CC(=O)O)c2c1
2. COc1c(Cl)ccc2c(=O)c3cc(F)c(C(C)C)cc3n(CC(=O)O)c12

1: 20 to 100 µM; 2: > 300 µM

Entry under review: COc1c(Cl)ccc2c(=O)c3ccc(-c4cccc(N)c4)cc3n(CC(=O)O)c12 . Reported IC50?
20 to 100 µM

###

Tested system: hSTING-WT (Homo sapiens (Human), UniProt Q86WV6, H232R)
Experiment notes: Radiometric filtration binding competition assay, hSTING-WT
pIC50: −log10 of the molar value.
Recorded endpoint: pIC50

Solved cases (5 shown):
O=C(O)Cn1c2cc(Nc3cnc(Cl)cn3)ccc2c(=O)c2ccc(Cl)c(Cl)c21 [Compound 258] : 4.00 to 4.70
CSc1c(Cl)ccc2c(=O)c3ccc(Br)cc3n(CC(=O)O)c12 [Compound 309] : 4.00 to 4.70
COc1c(Cl)ccc2c(=O)c3ccc(Nc4ccccc4OC(F)(F)F)cc3n(CC(=O)O)c12 [Compound 286] : > 4.70
COc1c(Cl)ccc2c(=O)c3ccc(SC(C)C)cc3n(CC(=O)O)c12 [Compound 232] : 3.52 to 4.00
C[C@@H](O)COc1c(Cl)ccc2c(=O)c3ccccc3n(CC(=O)O)c12 [Compound 323] : > 4.70

Okay, here is my list. What is pIC50 for each of these?
1. CC(C)(C)c1ccc2c(=O)c3ccc(Cl)c(OC4CCC4)c3n(CC(=O)O)c2c1 [Compound 228]
2. COc1c(Cl)c(O)cc2c(=O)c3ccccc3n(CC(=O)O)c12 [Compound 315]
3. CSc1c(Cl)ccc2c(=O)c3ccc(C)cc3n(CC(=O)O)c12 [Compound 279]

4.00 to 4.70
< 3.52
4.00 to 4.70

###

Tested system: mSTING-R232 (Mus musculus, UniProt Q3TBT3)
Experiment notes: STING differential scanning fluorimetry (DSF) assay, mouse STING
Recorded conditions: net shift in melting temperature
Recorded endpoint: MOUSE DSF_6xHIS-SUMO Tm Shift (° C.)

Below, 8 compounds whose answers are already recorded.
COc1ccc2c(c1C)c(=O)c1ccc(Cl)c(Cl)c1n2CC(=O)O : B (“B” = 0-5° C.)
O=C(O)Cn1c2ccccc2c(=O)c2ccc(Cl)c(Cl)c21 : C (“C” = 5-15° C.)
COc1c(Cl)ccc2c(=O)c3ccc(Nc4cccc(O)c4)cc3n(CC(=O)O)c12 : D (“D” > 15° C.)
O=C(O)Cn1c2cc(-c3cccc(Cl)c3)ccc2c(=O)c2ccc(Cl)c(Cl)c21 : D (“D” > 15° C.)
CC1(C)CC=C(c2ccc3c(=O)c4ccc(Cl)c(Cl)c4n(CC(=O)O)c3c2)CC1 : C (“C” = 5-15° C.)
O=C(O)Cn1c2cc(NC3CCOCC3)ccc2c(=O)c2ccc(Cl)c(Cl)c21 : C (“C” = 5-15° C.)
CC(=O)COc1c(Cl)ccc2c(=O)c3ccccc3n(CC(=O)O)c12 : B (“B” = 0-5° C.)
COc1c(Cl)ccc2c(=O)c3ccc(Nc4ccccc4)cc3n(CC(=O)O)c12 : D (“D” > 15° C.)

I have 7 compounds here; please give me MOUSE DSF_6xHIS-SUMO Tm Shift (° C.) for each one.
1. CC1(C)CCCC(Nc2ccc3c(=O)c4ccc(Cl)c(Cl)c4n(CC(=O)O)c3c2)C1 (centres unmarked)
2. COc1ccccc1Nc1ccc2c(=O)c3ccc(Cl)c(OC)c3n(CC(=O)O)c2c1
3. COc1c(Cl)ccc2c(=O)c3ccc(Nc4ccc(Cl)cc4)cc3n(CC(=O)O)c12
4. O=C(O)Cn1c2ccc(-c3ccccc3)cc2c(=O)c2ccc(Cl)c(Cl)c21
5. O=C(O)Cn1c2cc(Nc3ccccc3)ccc2c(=O)c2ccc(Cl)c(Br)c21
6. Cc1ccc2c(=O)c3ccc(Cl)c(OCC4CC4)c3n(CC(=O)O)c2c1
7. C[C@@H](O)COc1c(Cl)ccc2c(=O)c3ccccc3n(CC(=O)O)c12

1. D (“D” > 15° C.)
2. D (“D” > 15° C.)
3. D (“D” > 15° C.)
4. B (“B” = 0-5° C.)
5. D (“D” > 15° C.)
6. C (“C” = 5-15° C.)
7. D (“D” > 15° C.)

Please supply MOUSE DSF_6xHIS-SUMO Tm Shift (° C.) for each of the following items, keeping them in order.
1. Cc1ccc2c(=O)c3ccc(Cl)cc3n(C(C)C(=O)O)c2c1 (centres unmarked)
2. COc1c(Cl)ccc2c(=O)c3ccccc3n(CC(=O)O)c12

1: B (“B” = 0-5° C.); 2: C (“C” = 5-15° C.)

###

Tested system: hSTING-WT (Homo sapiens (Human), UniProt Q86WV6, H232R)
Experiment notes: Radiometric filtration binding competition assay, hSTING-WT
pIC50: −log10 of the molar value.
Hi there, I'd appreciate the recorded pIC50 for every entry that follows.

COc1c(Cl)ccc2c(=O)c3ccc(Nc4ccccc4)cc3n(CC(=O)O)c12 [Compound 207] : > 4.70
O=C(O)Cn1c2cc(Nc3ncccn3)ccc2c(=O)c2ccc(Cl)c(Cl)c21 [Compound 216] : 4.00 to 4.70
O=C(O)Cn1c2cc(C3CCC(O)CC3)ccc2c(=O)c2ccc(Cl)c(Cl)c21 (stereo not drawn) [Compound 214] : 4.00 to 4.70
COc1c(Cl)ccc2c(=O)c3ccc(C(C)(C)C)cc3n(CC(=O)NS(C)(=O)=O)c12 [Compound 262] : 4.00 to 4.70
CCCCCCOc1c(Cl)ccc2c(=O)c3ccccc3n(CC(=O)O)c12 [Compound 303] : 4.00 to 4.70
CN(C)c1c(Cl)ccc2c(=O)c3ccccc3n(CC(=O)O)c12 [Compound 136] : 4.00 to 4.70
O=C(O)Cn1c2ccccc2c(=O)c2ccc(Cl)c(-c3ccccc3)c21 [Compound 256] : 3.52 to 4.00
COc1cc(Cl)c(OC)c2c1c(=O)c1ccccc1n2CC(=O)O [Compound 313] : < 3.52

Look up pIC50 for this molecule: CSc1c(Cl)ccc2c(=O)c3ccc(-c4ccc(O)cc4)cc3n(CC(=O)O)c12 [Compound 271]
> 4.70

###

Can you tell me Emax for the items I'm about to list?
Tested system: STING protein (Homo sapiens (Human), UniProt Q86WV6, H232R)
Sequence (Q86WV6 whole entry H232R): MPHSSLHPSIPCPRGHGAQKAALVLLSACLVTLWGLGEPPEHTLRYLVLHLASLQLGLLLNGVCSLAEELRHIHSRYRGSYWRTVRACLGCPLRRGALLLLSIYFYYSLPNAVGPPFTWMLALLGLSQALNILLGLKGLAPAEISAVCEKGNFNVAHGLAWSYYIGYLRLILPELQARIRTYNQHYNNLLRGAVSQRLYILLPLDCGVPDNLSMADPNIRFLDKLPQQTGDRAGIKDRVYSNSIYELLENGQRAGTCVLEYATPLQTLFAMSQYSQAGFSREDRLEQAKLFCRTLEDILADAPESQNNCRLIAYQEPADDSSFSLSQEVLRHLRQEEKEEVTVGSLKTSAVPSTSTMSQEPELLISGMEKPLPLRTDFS
Experiment notes: Cell based reporter assay of IRF activation (IRF-luciferase), THP1-dual-KI R232
Recorded conditions: read-out: THP1-dual-KI R232_IRF(Luciferase)_Activity Maximum measured (%)

Give one value of Emax per listed compound.
1. CS(=O)(=O)Nc1cccc(Nc2ccc3c(=O)c4ccc(Cl)c(Cl)c4n(CC(=O)O)c3c2)c1
2. CN(C)c1c(Cl)ccc2c(=O)c3ccc(Nc4ccccc4)cc3n(CC(=O)O)c12
3. CC(C)c1ccc2c(=O)c3ccc(Cl)c(-c4ccccc4)c3n(CC(=O)O)c2c1
4. COc1c(Cl)ccc2c(=O)c3cc(N(C)C)c(C(C)C)cc3n(CC(=O)O)c12
5. O=C(O)Cn1c2ccccc2c(=O)c2ccc(Cl)c(Oc3ccccc3)c21
6. CC(C)(C)c1ccc2c(=O)c3ccc(Cl)c(Br)c3n(CC(=O)O)c2c1

1: < 5%; 2: > 50%; 3: > 50%; 4: < 5%; 5: < 5%; 6: > 50%

###

Please provide measured pIC50 for the entries that follow.
Tested system: hSTING-CTD (Homo sapiens (Human), UniProt Q86WV6)
Sequence (Q86WV6 135-379): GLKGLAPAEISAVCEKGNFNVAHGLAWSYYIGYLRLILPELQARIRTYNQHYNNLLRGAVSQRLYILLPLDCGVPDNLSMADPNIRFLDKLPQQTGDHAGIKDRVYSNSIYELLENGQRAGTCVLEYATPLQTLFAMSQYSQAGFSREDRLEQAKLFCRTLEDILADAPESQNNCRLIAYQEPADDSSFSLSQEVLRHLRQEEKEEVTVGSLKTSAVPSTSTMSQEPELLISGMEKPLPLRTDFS
Experiment notes: Human STING protein FP competition concentration response assay
Type: binding
pIC50: −log10 of the molar value.

See these solved cases before continuing.
CC(C)(C)c1ccc2c(=O)c3ccc(Cl)c(Cl)c3n(CC(=O)O)c2c1 [Compound 47] : > 4.00
O=C(O)Cn1c2cc(NC3CCCC3)ccc2c(=O)c2ccc(Cl)c(Cl)c21 [Compound 118] : > 4.00

Now look at this one.
Would you kindly share the measured pIC50 for CC1(C)CCC=C(c2ccc3c(c2)c(=O)c2ccc(Cl)c(Cl)c2n3CC(=O)O)C1 [Compound 67] ?
3.00 to 3.30

###

For each record, write down the corresponding Emax.
Tested system: STING protein (Homo sapiens (Human), UniProt Q86WV6, H232R)
Experiment notes: Cell based reporter assay of IRF activation (IRF-luciferase), THP1-dual-KI R232
Recorded conditions: read-out: THP1-dual-KI R232_IRF(Luciferase)_Activity Maximum measured (%)

Below are worked cases with known answers.
CCCCCCOc1c(Cl)ccc2c(=O)c3ccccc3n(CC(=O)O)c12 : 5 to 25%
CC(C)c1ccc2c(=O)c3ccc(C#N)c(Cl)c3n(CC(=O)O)c2c1 : < 5%
CONC(=O)Cn1c2cc(C)ccc2c(=O)c2ccc(Cl)c(OC)c21 : 25 to 50%
CC(C)(C)c1ccc2c(=O)c3ccc(Cl)c(OC4CCC4)c3n(CC(=O)O)c2c1 : < 5%

Fill in Emax for each of the 2 compounds listed.
1. CC(C)(C)CNc1ccc2c(=O)c3ccc(Cl)c(Br)c3n(CC(=O)O)c2c1
2. CCOc1c(Cl)ccc2c(=O)c3ccc(C(C)C)cc3n(CC(=O)O)c12

25 to 50%
> 50%
